Source listed as the supplement of paper PMC10567573.

# MEASUREMENT PROTOCOL: protein stability index of a GFP-peptide fusion (GPS, HEK-293T) (PSI 1-6); higher = more stable;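 further: 24-mer peptide tiles fused after GFP, lentivirally expressed, FACS-sorted into six equal bins by GFP/DsRed ratio, decoded by Illumina sequencing, PSI is the read-weighted mean bin number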
# SETUP CONDITIONS: treatment: DMSO; c terminus: a fixed tail appended
Would you kindly list protein stability index for each of these sequences?
One number for each entry.

Some entries whose results are on file:
NVSLGPGVVVEDGVCIRRCTVLRD [GMPPB]	3.54
DISPPIFRRGEKLRVISDEGGWWK [SLA]	3.02
PAPTTTTATREEASTSLPTKPTQG [CLPTM1]	5.54
PPLPTYHVLLEGEGLGQSLGNFKD [TRIM29]	3.8
LASYLEKVRQLERDNAELEKLIQE [KRT34]	3.33

// batch mode: one protein stability index value per listed entry
1. LWASQREKEVLRRERAVEWRERAV [ZBED2]
2. FQDKRNLYLIMEFLPGGDMMTLLM [STK38L]
3. ICGLQQDEEVSSLTCDALTELLAK [CCND2]
4. EALVRTVLRAGDREDITEPAICAL [CTNNB1]

1. 3.15
2. 3.34
3. 3.48
4. 3.45
